# TEST_SYSTEM: unphosphorylated VEGF-R2Δ50 (Homo sapiens, UniProt P35968, DEL940-989/E990V)
# Sequence (P35968 with tags, fused parts or gaps DEL940-989/E990V limits assumed): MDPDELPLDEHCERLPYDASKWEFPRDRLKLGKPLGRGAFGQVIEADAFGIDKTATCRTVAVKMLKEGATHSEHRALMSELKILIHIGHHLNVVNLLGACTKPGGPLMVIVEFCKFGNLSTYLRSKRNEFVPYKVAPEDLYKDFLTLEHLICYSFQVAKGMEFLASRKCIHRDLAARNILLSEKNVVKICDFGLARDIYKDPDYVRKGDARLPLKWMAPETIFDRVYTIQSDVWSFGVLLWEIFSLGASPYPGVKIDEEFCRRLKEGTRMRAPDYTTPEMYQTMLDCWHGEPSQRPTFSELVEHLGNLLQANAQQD
# PROTOCOL_DESCRIPTION: biochemical
# EXPERIMENTAL_SETUP: read-out: FLVK ** (% inhibition)
Please enter condition met where inhibition at 0.05 µM is greater than or equal to 90%, and condition not met where it is lower.

1. CCc1cc(C(=O)Nc2cc(C(=O)c3ccc4c(/C=C/c5ccccn5)n[nH]c4c3)ccc2C)n(C)n1 [Reference Example 41(jj)] :: condition not met
2. Cc1cc(C(=O)Nc2cc(Nc3ccc4c(/C=C/c5ccccn5)n[nH]c4c3)ccc2C)n(C)n1 :: condition met
3. C#CCNC(=O)c1ccccc1C(=O)c1ccc2c(/C=C/c3ccccn3)n[nH]c2c1 :: condition not met
4. O=C(NCc1ccccc1F)c1ccccc1Sc1ccc2c(/C=C/c3ccccn3)n[nH]c2c1 [Reference Example 35(f)] :: condition met
5. C=CCNC(=O)c1ccccc1Sc1ccc2c(/C=C/c3ccccn3)n[nH]c2c1 [Reference Example 35(u)] :: condition not met
